tested on: KARPAS-45; test: selective drug sensitivity score (sDSS, relative to normal bone marrow) (sDSS (score)); higher = more potent and effective on the cell line relative to normal bone marrow cells; conditions: 72 h;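 also: ALL cell lines in 384-well plates, five doses spanning 10,000-fold, each plate scaled between vehicle and 100 µmol/L benzalkonium chloride controls, sDSS an adapted area-under-curve metric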
selective drug sensitivity score by entry:
outcome.measure: selective drug sensitivity score

INSERT INTO measurements (compound, outcome_measure, endpoint_value) VALUES
  ('CCOc1ccn(-c2ccc(F)cc2)c(=O)c1C(=O)Nc1ccc(Oc2ccnc(N)c2Cl)c(F)c1 (top concentration 2500 nM)', 'selective drug sensitivity score', 2.2),
  ('O=C(O)c1ccc2c(c1)nc(Nc1cccc(Cl)c1)c1ccncc12 [Silmitasertib] (top concentration 10000 nM)', 'selective drug sensitivity score', 4.1),
  ('C=CC(=O)Nc1cc(Nc2nccc(-c3cn(C)c4ccccc34)n2)c(OC)cc1N(C)CCN(C)C [Osimertinib] (top concentration 2500 nM)', 'selective drug sensitivity score', -1.92);
